Hello, the source for this data is the Human Domainome abundance scans (Beltran et al. 2025), in case you need it.

B1: Transcription elongation factor A N-terminal and central domain-containing protein, residues 30 to 77; numbered along this chain, Q8N8B7 (parent)
chain: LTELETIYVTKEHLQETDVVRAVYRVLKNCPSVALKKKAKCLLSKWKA

variants of: B1; assay: abundance fitness (aPCA) (normalised: wild type 0, dead -1); higher = more abundant; growth selection in yeast, the domain comes from the species named; details: Homo sapiens
readout: abundance fitness

construct sequence: LTELETIYVTKEHLQETDDVRAVYRVLKNCPSVALKKKAKCLLSKWKA [V19D]
readout: abundance fitness
experimental value: -0.72

Request: Supply measured abundance fitness of LTELETIYPTKEHLQETDVVRAVYRVLKNCPSVALKKKAKCLLSKWKA [V9P] in your reply.
Result: -0.027

Request: Look up and report measured abundance fitness for this entry: LTELETIYVTKEHLQETDVVRAVYRVLKNCPSVALGKKAKCLLSKWKA [K36G]
Result: -0.109

Request: Note down abundance fitness recorded for LTELETIYVTKEHLQETDVVRAVYRVLKNCPSVALKKKAKNLLSKWKA [C41N]
Result: 0.268

Request: Tell me measured abundance fitness for LTELETIYVTKEHHQETDVVRAVYRVLKNCPSVALKKKAKCLLSKWKA [L14H] please.
Result: 0.294

Request: Quickly give me recorded abundance fitness for LTELETIYVTKEHLQETDIVRAVYRVLKNCPSVALKKKAKCLLSKWKA [V19I]
Result: -0.133

Request: Indicate its recorded abundance fitness; the variant in question is LTELETIYVTKEHLQETDVVRAVYRVLKNCPSVALKKKHKCLLSKWKA [A39H]
Result: -0.553

Request: For LTELETIYVTKEHLQETDVVRAVYRVLKNCPSVALKKKAKCLQSKWKA [L43Q] , write its abundance fitness.
Result: -0.527

Request: Complete the entry with abundance fitness for LTELETIYVTKEHLQETDVVRAAYRVLKNCPSVALKKKAKCLLSKWKA [V23A]
Result: -0.453
